The measurements presented in this section are drawn from ChEMBL document CHEMBL5335833.

test-details: Selectivity index, ratio of CC50 for cytotoxicity against mouse T lymphocytes to IC50 for Immunosuppressive activity in BALB/c mouse splenocytes assessed as reduction in ConA-induced mouse T-lymphocytes proliferation
Assay type: toxicity, cell-based
The entries below come with measured selectivity ratio values attached.
Respond with the number and no other words.

Worked cases, answers included:
INSERT INTO assay_data (compound, value_observed) VALUES
  ('COC1=C2C(=CC3Oc4c(OC)cc(Cl)c(OC)c4C(=O)C13)O[C@H]1OC=C[C@@H]21 (stereo not given in full)', 1.7),
  ('CO[C@H]1C[C@@]2(O)C3=C(O)C4C(=O)c5c(O)ccc(CCC(C)(C)O)c5OC4C=C3O[C@H]2O1 (stereo not given in full)', 7.4),
  ('COc1ccc(CCC(C)(C)O)c2c1C(=O)C1C(O)=C3C(=CC1O2)O[C@H]1OC=C[C@@]31O (stereo not given in full)', 14),
  ('CC(C)(O)C[C@H](O)c1ccc(O)c2c1OC1C=C3O[C@H]4OC=C[C@@]4(O)C3=C(O)C1C2=O (stereo not given in full)', 17),
  ('CO[C@@H]1C[C@H]2C3=C(O)C4C(=O)c5c(O)ccc(CCC(C)(C)O)c5OC4C=C3O[C@H]2O1 (stereo not given in full)', 5.7);

-- ask Entry CC(C)(O)C[C@H](O)c1ccc(O)c2c1OC1C=C3O[C@H]4OC=C[C@H]4C3=C(O)C1C2=O (stereo not given in full) : reported selectivity ratio = ?
-- reply 6.8

-- ask Now this one: CO[C@@H]1C[C@@]2(O)C3=C(O)C4C(=O)c5c(O)ccc(CCC(C)(C)O)c5OC4C=C3O[C@H]2O1 (stereo not given in full)
-- reply 5.9

-- ask Now consider COC1=C2C(=CC3Oc4c(OC)cc(Cl)c(OC)c4C(=O)C13)O[C@H]1O[C@@H](O)C[C@@H]21 (stereo not given in full) and answer again.
-- reply 2.8
